Sourced from BindingDB's records for doi:10.1021/jm060797q

- measurement.protocol: Antagonist activity against 1-alpha,25-dihydroxy vitamin D3-induced HL60 cell differentiation by NBT reduction method
pIC50: −log10 of the molar value.
quantity: pIC50

{"smiles.string": "C=C1/C(=C\\C=C2/CCC[C@]3(C)[C@@H]([C@H](C)C[C@H]4OC(=O)C(=C)[C@H]4CCCC)CC[C@@H]23)C[C@@H](O)[C@H](OCCCO)[C@@H]1O", "pIC50": 8.06}
{"smiles.string": "C=C1/C(=C\\C=C2/CCC[C@]3(C)[C@@H]([C@H](C)C[C@H]4OC(=O)C(=C)[C@@H]4CC)CC[C@@H]23)C[C@@H](O)[C@H](CCCO)[C@@H]1O", "pIC50": 8.08}
{"smiles.string": "C=C1/C(=C\\C=C2/CCC[C@]3(C)[C@@H]([C@H](C)C[C@H]4OC(=O)C(=C)[C@@H]4CC(C)C)CC[C@@H]23)C[C@@H](O)[C@H](OCCCO)[C@@H]1O", "pIC50": 8.03}
{"smiles.string": "C=C1/C(=C\\C=C2/CCC[C@]3(C)[C@@H]([C@H](C)C[C@@H]4OC(=O)C(=C)[C@H]4CCCC)CC[C@@H]23)C[C@@H](O)[C@H](CCCO)[C@@H]1O", "pIC50": 8.06}
{"smiles.string": "C=C1C(=O)O[C@H](C[C@@H](C)[C@H]2CC[C@H]3/C(=C/C=C4/C[C@@H](O)C[C@H](O)C4=C)CCC[C@]23C)[C@@H]1C", "pIC50": 8.04}
{"smiles.string": "C=C1/C(=C\\C=C2/CCC[C@]3(C)[C@@H]([C@H](C)C[C@H]4OC(=O)C(=C)[C@@H]4CC(C)C)CC[C@@H]23)C[C@@H](O)C[C@@H]1O", "pIC50": 8.00}

* * *

- measurement.protocol: Antagonist activity against 1-alpha,25-dihydroxy vitamin D3-induced HL60 cell differentiation by NBT reduction method
quantity: IC50 (nM)

Some solved cases for reference:
{"smiles.string": "C=C1C(=O)O[C@@H](C[C@@H](C)[C@H]2CC[C@H]3/C(=C/C=C4/C[C@@H](O)[C@H](C)[C@H](O)C4=C)CCC[C@]23C)[C@@H]1C", "unit.string": "nM", "IC50": 6.8}
{"smiles.string": "C=C1C[C@@H](C[C@@H](C)[C@H]2CC[C@H]3/C(=C/C=C4/C[C@@H](O)C[C@H](O)C4=C)CCC[C@]23C)OC1=O", "unit.string": "nM", "IC50": 6}
{"smiles.string": "C=C1/C(=C\\C=C2/CCC[C@]3(C)[C@@H]([C@H](C)C[C@H]4OC(=O)C(=C)C4(C)C)CC[C@@H]23)C[C@@H](O)C[C@@H]1O", "unit.string": "nM", "IC50": 6}
{"smiles.string": "C=C1/C(=C\\C=C2/CCC[C@]3(C)[C@@H]([C@H](C)C[C@H]4OC(=O)C(=C)[C@@H]4CCCC)CC[C@@H]23)C[C@@H](O)[C@H](C)[C@@H]1O", "unit.string": "nM", "IC50": 6.7}
{"smiles.string": "C=C1/C(=C\\C=C2/CCC[C@]3(C)[C@@H]([C@H](C)C[C@H]4OC(=O)C(=C)[C@@H]4C)CC[C@@H]23)C[C@@H](O)C[C@@H]1O", "unit.string": "nM", "IC50": 11}
{"smiles.string": "C=C1C(=O)O[C@H](C[C@@H](C)[C@H]2CC[C@H]3/C(=C/C=C4/C[C@@H](O)C[C@H](O)C4=C)CCC[C@]23C)[C@@H]1CCCC", "unit.string": "nM", "IC50": 8.2}

1. C=C1/C(=C\C=C2/CCC[C@]3(C)[C@@H]([C@H](C)C[C@@H]4OC(=O)C(=C)[C@@H]4C)CC[C@@H]23)C[C@@H](O)[C@H](OCCCO)[C@@H]1O
2. C=C1/C(=C\C=C2/CCC[C@]3(C)[C@@H]([C@H](C)C[C@H]4OC(=O)C(=C)[C@@H]4CCCC)CC[C@@H]23)C[C@@H](O)[C@H](CCCO)[C@@H]1O
Sort 1 and 2 by IC50 descending and give the first. Give the label under which the chosen entry appears.
2
(2: 8.8 nM, 1: 6.1 nM)

1. C=C1/C(=C\C=C2/CCC[C@]3(C)[C@@H]([C@H](C)C[C@H]4OC(=O)C(=C)[C@H]4CCC)CC[C@@H]23)C[C@@H](O)[C@H](CCCO)[C@@H]1O
2. C=C1/C(=C\C=C2/CCC[C@]3(C)[C@@H]([C@H](C)C[C@@H]4OC(=O)C(=C)[C@H]4CC(C)C)CC[C@@H]23)C[C@@H](O)[C@H](C)[C@@H]1O
Sort 1 and 2 by IC50 descending and give the first. Give the label under which the chosen entry appears.
2

* * *

- measurement.protocol: Antagonist activity against 1-alpha,25-dihydroxy vitamin D3-induced HL60 cell differentiation by NBT reduction method
pIC50: −log10 of the molar value.
quantity: pIC50

{"smiles.string": "C=C1/C(=C\\C=C2/CCC[C@]3(C)[C@@H]([C@H](C)C[C@H]4OC(=O)C(=C)[C@H]4CC)CC[C@@H]23)C[C@@H](O)[C@H](CCCO)[C@@H]1O", "assay.value": 8.08}
{"smiles.string": "C=C1/C(=C\\C=C2/CCC[C@]3(C)[C@@H]([C@H](C)C[C@H]4OC(=O)C(=C)[C@H]4CCCC)CC[C@@H]23)C[C@@H](O)[C@H](C)[C@@H]1O", "assay.value": 8.17}
{"smiles.string": "C=C1/C(=C\\C=C2/CCC[C@]3(C)[C@@H]([C@H](C)C[C@H]4OC(=O)C(=C)[C@H]4CCC)CC[C@@H]23)C[C@@H](O)[C@H](OCCCO)[C@@H]1O", "assay.value": 8.20}
{"smiles.string": "C=C1C[C@H](C[C@@H](C)[C@H]2CC[C@H]3/C(=C/C=C4/C[C@@H](O)C[C@H](O)C4=C)CCC[C@]23C)OC1=O", "assay.value": 8.20}
{"smiles.string": "C=C1/C(=C\\C=C2/CCC[C@]3(C)[C@@H]([C@H](C)C[C@H]4OC(=O)C(=C)[C@H]4CC)CC[C@@H]23)C[C@@H](O)[C@H](OCCCO)[C@@H]1O", "assay.value": 8.08}
{"smiles.string": "C=C1/C(=C\\C=C2/CCC[C@]3(C)[C@@H]([C@H](C)C[C@H]4OC(=O)C(=C)[C@H]4CCC)CC[C@@H]23)C[C@@H](O)[C@H](C)[C@@H]1O", "assay.value": 8.20}
{"smiles.string": "C=C1/C(=C\\C=C2/CCC[C@]3(C)[C@@H]([C@H](C)C[C@@H]4OC(=O)C(=C)[C@H]4CC)CC[C@@H]23)C[C@@H](O)[C@H](CCCO)[C@@H]1O", "assay.value": 8.08}
{"smiles.string": "C=C1/C(=C\\C=C2/CCC[C@]3(C)[C@@H]([C@H](C)C[C@H]4OC(=O)C(=C)[C@@H]4CC)CC[C@@H]23)C[C@@H](O)[C@H](C)[C@@H]1O", "assay.value": 8.17}
{"smiles.string": "C=C1/C(=C\\C=C2/CCC[C@]3(C)[C@@H]([C@H](C)C[C@@H]4OC(=O)C(=C)[C@@H]4C)CC[C@@H]23)C[C@@H](O)[C@H](C)[C@@H]1O", "assay.value": 8.17}
{"smiles.string": "C=C1C(=O)O[C@H](C[C@@H](C)[C@H]2CC[C@H]3/C(=C/C=C4/C[C@@H](O)[C@H](CCCO)[C@H](O)C4=C)CCC[C@]23C)[C@@H]1C", "assay.value": 8.21}
{"smiles.string": "C=C1C(=O)O[C@@H](C[C@@H](C)[C@H]2CC[C@H]3/C(=C/C=C4/C[C@@H](O)C[C@H](O)C4=C)CCC[C@]23C)[C@@H]1CCCC", "assay.value": 8.09}
{"smiles.string": "C=C1/C(=C\\C=C2/CCC[C@]3(C)[C@@H]([C@H](C)C[C@H]4OC(=O)C(=C)[C@H]4CC(C)C)CC[C@@H]23)C[C@@H](O)[C@H](OCCCO)[C@@H]1O", "assay.value": 8.03}

* * *

- measurement.protocol: Antagonist activity against 1-alpha,25-dihydroxy vitamin D3-induced HL60 cell differentiation by NBT reduction method
pIC50: −log10 of the molar value.
quantity: pIC50

Some solved cases for reference:
{"smiles.string": "C=C1/C(=C\\C=C2/CCC[C@]3(C)[C@@H]([C@H](C)C[C@@H]4OC(=O)C(=C)[C@@H]4CC)CC[C@@H]23)C[C@@H](O)[C@H](OCCCO)[C@@H]1O", "quantity": "pIC50", "assay.value": 8.08}
{"smiles.string": "C=C1/C(=C\\C=C2/CCC[C@]3(C)[C@@H]([C@H](C)C[C@@H]4OC(=O)C(=C)[C@@H]4CC(C)C)CC[C@@H]23)C[C@@H](O)C[C@@H]1O", "quantity": "pIC50", "assay.value": 8.02}
{"smiles.string": "C=C1/C(=C\\C=C2/CCC[C@]3(C)[C@@H]([C@H](C)C[C@H]4OC(=O)C(=C)[C@@H]4CC)CC[C@@H]23)C[C@@H](O)[C@H](OCCCO)[C@@H]1O", "quantity": "pIC50", "assay.value": 8.08}
{"smiles.string": "C=C1C(=O)O[C@@H](C[C@@H](C)[C@H]2CC[C@H]3/C(=C/C=C4/C[C@@H](O)C[C@H](O)C4=C)CCC[C@]23C)[C@@H]1CC(C)C", "quantity": "pIC50", "assay.value": 8.03}
{"smiles.string": "C=C1/C(=C\\C=C2/CCC[C@]3(C)[C@@H]([C@H](C)C[C@H]4OC(=O)C(=C)[C@@H]4C)CC[C@@H]23)C[C@@H](O)[C@H](CCCO)[C@@H]1O", "quantity": "pIC50", "assay.value": 8.21}

a. C=C1/C(=C\C=C2/CCC[C@]3(C)[C@@H]([C@H](C)C[C@H]4OC(=O)C(=C)[C@@H]4CCC)CC[C@@H]23)C[C@@H](O)[C@H](C)[C@@H]1O
b. C=C1/C(=C\C=C2/CCC[C@]3(C)[C@@H]([C@H](C)C[C@H]4OC(=O)C(=C)[C@H]4CC(C)C)CC[C@@H]23)C[C@@H](O)[C@H](C)[C@@H]1O
Looking at recorded values for pIC50, does a or b come in lower? Give the label under which the chosen entry appears.
b
(b: 7.96, a: 8.20)
